These entries and their values trace back to patent US20220348651A1.

# assay-target: T1, cyno ENTPD2 expressed on NIH/3T3 cells (cynomolgus macaque, UniProt Q9Y5L3 1-495 (human entry))
# T1 chain: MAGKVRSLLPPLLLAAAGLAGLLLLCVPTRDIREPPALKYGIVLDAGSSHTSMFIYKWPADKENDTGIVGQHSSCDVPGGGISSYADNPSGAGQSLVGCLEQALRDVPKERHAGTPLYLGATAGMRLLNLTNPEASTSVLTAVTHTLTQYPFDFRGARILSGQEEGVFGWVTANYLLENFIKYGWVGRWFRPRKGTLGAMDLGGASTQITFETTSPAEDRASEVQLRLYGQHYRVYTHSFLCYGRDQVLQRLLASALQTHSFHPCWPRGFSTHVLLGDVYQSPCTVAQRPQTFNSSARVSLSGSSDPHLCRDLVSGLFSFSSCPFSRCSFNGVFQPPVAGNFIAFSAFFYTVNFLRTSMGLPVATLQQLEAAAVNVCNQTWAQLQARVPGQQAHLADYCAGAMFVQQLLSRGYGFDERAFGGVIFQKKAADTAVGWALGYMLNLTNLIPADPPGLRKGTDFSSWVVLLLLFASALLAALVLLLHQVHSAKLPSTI
# method-description: cell-based or functional assay
Measured IC50, Cyno ENTPD2 NIH/3T3 Assay accompanies every entry in the list below.
Kindly answer with a numeric value in nM, unit omitted.

Some binders with recorded IC50, Cyno ENTPD2 NIH/3T3 Assay:
• ANTI-HUMAN ENTPD2 MAB9 (antibody, human IgG1, lambda, V domains shown, also called Anti-ENTPD2 mAb9) VH: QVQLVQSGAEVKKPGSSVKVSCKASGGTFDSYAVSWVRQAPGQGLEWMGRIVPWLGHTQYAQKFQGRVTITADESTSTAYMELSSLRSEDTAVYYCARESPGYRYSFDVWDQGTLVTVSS VL: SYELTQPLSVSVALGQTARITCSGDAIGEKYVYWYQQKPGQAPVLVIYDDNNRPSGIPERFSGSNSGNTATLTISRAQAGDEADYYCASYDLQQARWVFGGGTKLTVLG = 0.3
• ANTI-HUMAN ENTPD2 MAB10 (antibody, human IgG1, lambda, V domains shown, also called Anti-ENTPD2 mAb10) VH: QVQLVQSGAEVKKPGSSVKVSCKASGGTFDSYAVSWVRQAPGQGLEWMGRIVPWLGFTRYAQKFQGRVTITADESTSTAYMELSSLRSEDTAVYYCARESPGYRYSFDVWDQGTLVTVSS VL: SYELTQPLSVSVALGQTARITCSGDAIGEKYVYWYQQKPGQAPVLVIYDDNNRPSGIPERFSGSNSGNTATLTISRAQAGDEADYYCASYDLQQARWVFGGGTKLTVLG = 0.5

Exercise: Fill in the blank: the reported IC50, Cyno ENTPD2 NIH/3T3 Assay of ANTI-HUMAN ENTPD2 MAB18 (antibody, human IgG1, kappa, V domains shown) VH: DIQLQESGPGLVKPSQSLSLTCSVTGYSITSGYYWNWIRQFPGNKLEWMGYISYDGDNNYNPSLKNRISITRDTSKNQFFLKLSSVTTEDTATYYCAGGYYRYGLGSYSGSYYYVMDYWGQGTSVTVSS VL: DTVLTQSPASLAVSLGQRATISCKASQSVDYDGNSYMNWYQQKPGQPPKLLIYAASNLESGIPARFSGSGSGTDFTLNIHPVEEEDAATYYCQQSNEDPPTFGGGTKLEIKR is ____.
Key: 20
